test system: Fibroblast; test: Multiplex assay against human fibroblast; assay type: toxicity, cell-based; conditions: 48 h, 1 µM, compound concentration 1 uM, replicate 1
Parameter threshold = 20%. Response is Yes when Population Membrane Permeable-Phenotype (%) meets or exceeds it, else No.

| compound | measuredOn | classAssignment |
| --- | --- | --- |
| CNc1oc(-c2cccc3ccccc23)nc1C#N | Fibroblast | Yes |
| COc1cc2c(NC3CCN(C(C)C)CC3)nc(N3CCC(F)(F)CC3)nc2cc1OCCCN1CCCC1 | Fibroblast | No |
| CC(=O)c1cc(-c2cc(C(=O)NC3CC3)ccc2C)c2ncccn12 | Fibroblast | Yes |
| Cc1cc2c(cc1N1C(=O)c3cccc4c(CCCO)ccc(c34)C1=O)n(C)c(=O)n2C | Fibroblast | Yes |
| O=C(O)c1ccc2cc(-c3ccc(O)c(C45CC6CC(CC(C6)C4)C5)c3)ccc2c1 | Fibroblast | No |
| Nc1nc2c(c(N3CCNCC3)n1)CCC1=C2[C@@H]2CCCC[C@@H]2O1 | Fibroblast | No |
| Cl.Cl.Nc1ncnc2c1c(-c1cccc(OCc3ccccc3)c1)cn2[C@H]1C[C@@H](CN2CCC2)C1 | Fibroblast | No |
| Cc1nc(Cc2cccc(C(F)(F)F)c2)sc1-c1ccc(C(N)=O)nc1 [TP-024n] | Fibroblast | Yes |
| CC(C)N1CCC(C)(C)c2cc(C#Cc3ccc(C(=O)O)cc3)ccc21 | Fibroblast | Yes |

* * *

tested on: Fibroblast; experiment: Multiplex assay against human fibroblast; format: toxicity, cell-based; conditions: 12 h, 1 µM, compound concentration 1 uM, replicate 2
measurementType: Population Tubulin-Different-Phenotype (%)

| compound | result |
| --- | --- |
| N#Cc1cnc(Nc2cc(NC[C@H]3CNCCO3)c(C(F)(F)F)cn2)cn1 [SRA-737] | 0% |
| c1ccc2oc(-c3csc(C4CCN(Cc5nc6ncccc6[nH]5)CC4)n3)cc2c1 | 26% |
| COc1cc(N2CCC(N(C)C)CC2)ccc1Nc1ncc(Cl)c(Nc2ccccc2P(C)(C)=O)n1 | 21% |
| CC(=O)c1cc(-c2cc(C(=O)NC3CC3)ccc2C)c2ncccn12 | 19% |
| CCc1cc2c(cc1CC)CC(NC[C@H](O)c1ccc(O)c3[nH]c(=O)ccc13)C2 [INDACATEROL] | 14% |
| Cl.Cl.Nc1ncnc2c1c(-c1cccc(OCc3ccccc3)c1)cn2[C@H]1C[C@@H](CN2CCC2)C1 | 52% |
| CNC(=O)c1cc(Oc2ccc(NC(=O)Nc3cc(C(C)(C)C)nn3-c3ccc4ncccc4c3)c(F)c2)ccn1 [REBASTINIB] | 26% |
| O=C(O)c1ccc2cc(-c3ccc(O)c(C45CC6CC(CC(C6)C4)C5)c3)ccc2c1 [O-DEMETHYLATED ADAPALENE] | 16% |
| CCOc1cc2ncc(C#N)c(Nc3ccc(OCc4cccc(F)c4)c(Cl)c3)c2cc1NC(=O)/C=C/CN(C)C [HKI-357] | 13% |
| CC(C)N1CCC(C)(C)c2cc(C#Cc3ccc(C(=O)O)cc3)ccc21 | 20% |
| CC(C)Oc1ccc(C(=O)N[C@H](CNC(=O)CN(C)C)Cc2ccc(-c3cn4cccc([C@H](C)O)c4n3)cc2)cc1Cl [GSK-923295A] | 40% |
| CCCn1c(=O)c2[nH]c(C34CC5CC(CC3C5)C4)nc2n(CCC)c1=O [ROLOFYLLINE] | 20% |
| CCC(=O)O[C@]1(C(=O)SCF)[C@H](C)C[C@H]2[C@@H]3C[C@H](F)C4=CC(=O)C=C[C@]4(C)[C@@]3(F)[C@@H](O)C[C@@]21C [FLUTICASONE PROPIONATE] | 9% |
| COc1cc2c(NC3CCN(C(C)C)CC3)nc(N3CCC(F)(F)CC3)nc2cc1OCCCN1CCCC1 | 19% |
| CCOc1cc(N2CCC(O)CC2)ccc1Nc1ncc2c(n1)N(C1CCCC1)CCC(=O)N2C | 39% |
| CN(C)CCOc1ccc(-c2nc(-c3ccncc3)c(-c3ccc4c(c3)CC/C4=N\O)[nH]2)cc1 [SB590885] | 42% |

* * *

system: U2OS; assay: Incucyte cell viability with U2OS; assay type: toxicity, cell-based; settings: human, 12 h, 10 µM, compound concentration 10 uM, replicate number 1, timepoint 12 hours; note: filed as whole numbers so only -1 and 0 and 1 occur
Known Growth Rate of a selection of molecules

| molecule | Growth Rate |
| --- | --- |
| CO[C@H]1/C=C/O[C@@]2(C)Oc3c(C)c(O)c4c(O)c(c(/C=N/N5CCN(C)CC5)c(O)c4c3C2=O)NC(=O)/C(C)=C\C=C\[C@H](C)[C@H](O)[C@@H](C)[C@@H](O)[C@@H](C)[C@H](OC(C)=O)[C@@H]1C | 1 |
| O=C(c1ccc(F)c(F)c1Nc1ccc(I)cc1F)N1CC(O)([C@@H]2CCCCN2)C1 | 0 |
| CC1(C)CNc2cc(NC(=O)c3cccnc3NCc3ccncc3)ccc21.O=P(O)(O)O.O=P(O)(O)O [MOTESANIB DIPHOSPHATE] | 1 |
| CC(=O)[C@@]1(O)CC[C@H]2[C@@H]3C[C@H](C)C4=CC(=O)CC[C@]4(C)[C@H]3CC[C@@]21C | 1 |
| Cc1nc2sccn2c(=O)c1CCN1CCC(=C(c2ccc(F)cc2)c2ccc(F)cc2)CC1 | 1 |
| COc1ccc(NS(=O)(=O)c2sc3ccc(Cl)cc3c2C)cc1N1CCNCC1.Cl | 0 |
| Nc1nc2c(c(N3CCNCC3)n1)CCC1=C2[C@@H]2CCCC[C@@H]2O1 | 1 |
| CN(C)C/C=C/C(=O)Nc1cc2c(Nc3ccc(F)c(Cl)c3)ncnc2cc1O[C@H]1CCOC1.O=C(O)/C=C\C(=O)O.O=C(O)/C=C\C(=O)O [AFATINIB DIMALEATE] | 0 |
| Cn1cc(-c2ccc3occ(-c4ccccc4-c4ccccc4)c3n2)cn1 | 1 |
| O=C(O)COc1cccc(CN(Cc2ccc(-n3cccn3)cc2)S(=O)(=O)c2cccnc2)c1 | 1 |
| O=C(Nc1cccnc1)c1cc(-c2ccnc(F)c2)ccc1OCc1ccccc1 | 0 |
| c1ccc2oc(-c3csc(C4CCN(Cc5nc6ncccc6[nH]5)CC4)n3)cc2c1 | 0 |
| CN(C)CCCn1cc(C2=C(c3c[nH]c4ccccc34)C(=O)NC2=O)c2ccccc21 | 1 |
| CCc1cc2c(cc1CC)CC(NC[C@H](O)c1ccc(O)c3[nH]c(=O)ccc13)C2 | 1 |
| CC(C)CC(=O)N1CCc2nc(-c3ccc(Br)cc3)nc(N(C)Cc3ccccc3)c2C1 | 0 |
| COc1cc2c(Nc3ccc(NC(=O)c4ccccc4)cc3)ncnc2cc1OCCCN1CCOCC1 | 0 |
| CCCn1c(=O)c2[nH]c(C34CC5CC(CC3C5)C4)nc2n(CCC)c1=O | 1 |
| CCCCN(CCCC)C(=O)CN1C[C@@H](c2cc(OC)c3c(c2)OCO3)[C@H](C(=O)O)[C@H]1CC(C)(C)CCC | 0 |
| CCCOc1ccc([C@@H]2[C@@H](C(=O)O)[C@H](c3ccc4c(c3)OCO4)CN2CC(=O)Nc2c(CC)cccc2CC)cc1 | 1 |
| Cc1nc(Cc2cccc(C(F)(F)F)c2)sc1-c1ccc(C(N)=O)nc1 [TP-024n] | 0 |
| Cl.Cl.Nc1ncnc2c1c(-c1cccc(OCc3ccccc3)c1)cn2[C@H]1C[C@@H](CN2CCC2)C1 | 0 |
| CCCCN(CCCC)C(=O)CN1C[C@@H](c2cc(OC)c3c(c2)OCO3)[C@H](C(=O)O)[C@H]1CC(C)(C)CCC.Cl | 0 |
| CNc1nc(-c2ccc3c(N)n[nH]c3c2)cc(N2C[C@@H](C(=O)NC3CCCCC3)CC[C@H]2C)n1 | 0 |
| CNC(=O)c1cc(Oc2ccc(NC(=O)Nc3cc(C(C)(C)C)nn3-c3ccc4ncccc4c3)c(F)c2)ccn1 | 0 |
| Cc1cnc(-c2cc(Cl)ccc2F)cc1-n1c(=O)n(CC(N)=O)c2cnccc21 | 0 |
| O=C(NOC[C@H](O)CO)c1ccc(F)c(F)c1Nc1ccc(I)cc1F | 0 |
| CCOc1cc(N2CCC(O)CC2)ccc1Nc1ncc2c(n1)N(C1CCCC1)CCC(=O)N2C | 1 |
| CC(=O)c1cc(-c2cc(C(=O)NC3CC3)ccc2C)c2ncccn12 | 0 |
| CCc1cc2c(c(CC)n1)CCC(=O)N2Cc1ccc(-c2ccccc2-c2nnn[nH]2)cc1.Cl | 0 |
| CCn1c(-c2nonc2N)nc2cnc(Oc3cccc(NC(=O)c4ccc(OCCN5CCOCC5)cc4)c3)cc21 [GSK-269962A] | 1 |
| Cc1cn(-c2cc(NC(=O)c3ccc4c(c3)CN(c3cncnc3)C[C@@H]4C)cc(C(F)(F)F)c2)cn1 | 0 |
| Cc1cc(C(=O)N2Cc3cnn(C)c3Nc3ccccc32)ccc1CNC(=O)N1CCC[C@H]1C(=S)N1CCCN(C)CC1 | 0 |
